system: MILI (PIWIL2) piRISC loaded with L1MC piRNA (26 nt); assay: pre-steady-state target cleavage rate (min^-1); guide: L1MC piRNA 5'p-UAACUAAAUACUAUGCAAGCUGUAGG; MIWI and MILI are mouse PIWI proteins and EfPiwi is from a freshwater sponge; tags in brackets are library labels; higher = faster piRNA-guided slicing of the target; conditions: auxiliary factor: 500 nM mouse GTSF1;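 also: 1 nM active piRISC with 0.1 nM target library at 33 °C single turnover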
Tick Yes if pre-steady-state target cleavage rate is 0.09 or greater. Tick No if pre-steady-state target cleavage rate is less than 0.09.

Worked cases, answers included:
# sequenceRecord, systemTested, classification
records = [
    ("UCCUGGUACAGCUUGCAUAGUUUUUUCAAA", "MILI (PIWIL2) piRISC loaded with L1MC piRNA (26 nt)", "No"),
    ("UCCUCCUACAGCUUGCAUAGUAUAAAGUAA", "MILI (PIWIL2) piRISC loaded with L1MC piRNA (26 nt)", "No"),
    ("UCCUGCUACAUCUUGCAUAGUAUUUAGUUA", "MILI (PIWIL2) piRISC loaded with L1MC piRNA (26 nt)", "Yes"),
    ("UCCUGGAUCACCUUGCAUAGUAUUUAGAAA", "MILI (PIWIL2) piRISC loaded with L1MC piRNA (26 nt)", "Yes"),
    ("UCCUCCUACAGCUUGCAUCGUAUUUAGUUA", "MILI (PIWIL2) piRISC loaded with L1MC piRNA (26 nt)", "Yes"),
]

Kindly review the next sequence as well.
Inquiry: Does pre-steady-state target cleavage rate meet or surpass 0.09 for "UCCUGCUUCAGCUUGCAUAGUAUAUAGUUA" ?
Reply text: Yes
